Readings of TGI for the listed compounds
Test system: UACC-257 melanoma
run_description: NCI tumour cell line growth inhibition, 48 h
metric: TGI

{"compound": "OCCCCCCCCCCCOc1ccc(C2OCC3(CO2)COC(c2ccc(OCCCCCCCCCCCO)cc2)OC3)cc1 (stereo unspecified)", "metric": "TGI", "observed_result": "> 50 µM"}
{"compound": "S=C(Nc1ccccc1)N(/N=C/C=C/c1ccccc1)c1nnc(-c2ccccc2)c(-c2ccccc2)n1", "metric": "TGI", "observed_result": "> 100 µM"}
{"compound": "NC(=O)NC1C(c2ccccc2)=C1c1ccccc1", "metric": "TGI", "observed_result": "38.4 µM"}
{"compound": "NS(=O)(=O)c1ccc(N=Nc2nc3[nH]c(=O)[nH]c(=O)c3[nH]2)cc1", "metric": "TGI", "observed_result": "> 100 µM"}
{"compound": "CCOC(=O)C1=C(C)N(Cc2ccc(Cl)cc2Cl)C2(O)C=CC(=O)C3C(=O)N(c4ccccc4)C(=O)C132 (stereo unspecified)", "metric": "TGI", "observed_result": "5.81 µM"}
{"compound": "CN=c1nc2sc3c(c2c(NC(=S)NC)s1)CCCC3", "metric": "TGI", "observed_result": "> 100 µM"}
{"compound": "Cc1ccc(C)c(C2=C(c3cn(C)c4ccccc34)C(=O)NC2=O)c1", "metric": "TGI", "observed_result": "> 25 µM"}
{"compound": "CC(=O)c1ccc(NCc2cc(O)ccc2O)cc1", "metric": "TGI", "observed_result": "33.9 µM"}
{"compound": "CCCCC1=NNC(=O)C1", "metric": "TGI", "observed_result": "> 100 µM"}
{"compound": "[Cl][Hg][c]1cc(Br)cc(Br)c1", "metric": "TGI", "observed_result": "21.6 µM"}
{"compound": "CNC(C#N)c1ccc(OC)cc1 (stereo unspecified)", "metric": "TGI", "observed_result": "> 100 µM"}

----------
Recorded TGI, one value per entry.
System: IGROV1 ovarian
run_description: NCI tumour cell line growth inhibition, 48 h
metric: TGI

{"compound": "COc1cc(N(CCC#N)CCC#N)ccc1/C(N=Nc1ccc([N+](=O)[O-])cc1)=N/NC(=O)c1cc(Br)ccc1O", "observed_result": "121 µg/mL"}
{"compound": "COc1ccc(N2C(=O)C(=O)N(c3ccccc3[N+](=O)[O-])C2=S)cc1", "observed_result": "> 100 µM"}
{"compound": "CNc1ccc(C(=O)CC(O)CCC(C)C2OC(=O)CC(O)CC(=O)CC(O)CC(O)CC(O)CC(O)CC3(O)CC(O)C(C(=O)NCCN(C)C)C(CC(OC4OC(C)C(O)C(NC(=O)CN5CCN(C)CC5)C4O)/C=C/C=C/C=C/C=C\\C=C/C=C/C=C/C2C)O3)cc1 (stereo not drawn)", "observed_result": "> 100 µM"}

----------
Test system: MDA-MB-231 breast
run_description: NCI tumour cell line growth inhibition, 48 h

{"molecule": "COc1ccc(N2C(=O)C(=O)N(c3ccccc3[N+](=O)[O-])C2=S)cc1", "TGI": "> 100 µM"}
{"molecule": "Cc1ccc(C)c(C2=C(c3cn(C)c4ccccc34)C(=O)NC2=O)c1", "TGI": "> 25 µM"}
{"molecule": "O=c1cc(N2CCOCC2)[nH]c(=O)n1-c1ccc(F)cc1", "TGI": "> 100 µM"}
{"molecule": "COC(=O)CCC1=CCC2(SC)C(=O)Nc3cccc1c32 (configuration not stated)", "TGI": "> 100 µM"}
{"molecule": "CC(CCC=O)CCOCc1ccccc1 (configuration not stated)", "TGI": "> 100 µM"}
{"molecule": "COC(=O)c1cc2c3c(ccc2[nH]1)N(C(=O)c1cc2cc(OC)c(OC)c(OC)c2[nH]1)CC3CCl (configuration not stated)", "TGI": "> 100 µM"}
{"molecule": "CCOC(=O)c1c(-c2ccc(OC)cc2)c(C#N)c(=S)n(C2OC(COC(C)=O)C(OC(C)=O)C(OC(C)=O)C2OC(C)=O)c1-c1ccccc1 (configuration not stated)", "TGI": "> 100 µM"}
{"molecule": "NC(=O)NC1C(c2ccccc2)=C1c1ccccc1", "TGI": "38.2 µM"}
{"molecule": "O=C(Nc1nc2ccc(C(F)(F)F)cc2s1)c1cc(Cl)ccc1O", "TGI": "3.75 µM"}
{"molecule": "CNC(=O)N(C)N=NCCCl", "TGI": "> 100 µM"}
{"molecule": "COc1ccccc1/C(=N\\OCCC(=O)O)c1cccs1", "TGI": "> 100 µM"}
{"molecule": "N#Cc1c(NN)n(C2OC(CO)C(O)C2O)c2ncnc(N)c12 (configuration not stated)", "TGI": "> 24.1 µM"}
{"molecule": "CCn1c(-c2nonc2N)nc2c(C#CC(C)(C)O)nc(OC[C@H](N)c3ccccc3)cc21", "TGI": "8.83 µM"}
{"molecule": "COc1ccc2c(c1)CCCC(Br)C2=O (configuration not stated)", "TGI": "10.9 µM"}
{"molecule": "O=C(OC(CNc1cc(=O)n(Cc2ccccc2)c(=O)n1Cc1ccccc1)CN1CCCC1)c1ccccc1 (configuration not stated)", "TGI": "> 100 µM"}
{"molecule": "O=c1cnn(C/C=C/CBr)c(=O)[nH]1", "TGI": "45.6 µM"}
{"molecule": "COc1cc2nc(-c3ccc(Cl)cc3)cc(OCCCN3CCCCC3)c2cc1OC", "TGI": "4 µM"}
{"molecule": "C=C(c1nc2ccc(Cl)cc2[nH]c1=O)C(O)c1ccc(C(O)C(=O)c2nc3ccc(Cl)cc3[nH]c2=O)cc1 (configuration not stated)", "TGI": "> 100 µM"}
{"molecule": "Nc1ncnc2c1ccn2C/C=C\\CO", "TGI": "> 100 µM"}
{"molecule": "O=C1C2CC=CCC2C(=O)N1n1c(Cc2ccc(Cl)cc2)n[nH]c1=O (configuration not stated)", "TGI": "> 100 µM"}
{"molecule": "CCOc1cc2c(OCc3ccccc3)cc3c4cc(OC)c(OC)cc4c[n+](C)c3c2cc1OC", "TGI": "6.65 µM"}
{"molecule": "CN(C)N=Nc1ccc(NC=O)cc1", "TGI": "> 100 µM"}

----------
System: SK-MEL-2 melanoma
run_description: NCI tumour cell line growth inhibition, 48 h
Label yes (1) for high-side TGI (at or above 30 µM) and no (0) for low-side TGI (below it).

{"compound": "COC(=O)CCC1=CCC2(SC)C(=O)Nc3cccc1c32 (stereo unspecified)", "assigned_label": "yes (1)"}
{"compound": "CCCC(=O)n1[nH]c(=O)n(-c2ccc(Cl)cc2)c1=O", "assigned_label": "yes (1)"}
{"compound": "COc1cnc2c(c1)C(=O)c1c-2n(CCCNC(C)C)c(=O)c2cc(Cl)ccc12", "assigned_label": "yes (1)"}
{"compound": "CC(C)c1ccc2c(c1)CC[C@@H]1[C@@](C)(C(=O)O)CCC[C@]21C", "assigned_label": "no (0)"}
{"compound": "CN(C(=O)C1=CCC2(CC1)OCCO2)c1ccccc1OS(=O)(=O)C(F)(F)F", "assigned_label": "yes (1)"}
{"compound": "NNC(=S)N/N=C(\\CC1OC(=O)c2ccccc21)c1ccccc1O (stereo unspecified)", "assigned_label": "yes (1)"}
{"compound": "CS(=O)(=O)Nc1ccc2c(c1)oc(=O)c1ccccc12", "assigned_label": "yes (1)"}
{"compound": "COC(=O)C(=Cc1cc(OC)ccc1OC)C(=O)OC", "assigned_label": "yes (1)"}
{"compound": "CC(=O)c1ccc(NCc2cc(O)ccc2O)cc1", "assigned_label": "yes (1)"}
{"compound": "COc1cc(C#CC(=O)OC/C=C/c2ccc3c(c2)OCO3)cc(OC)c1OC", "assigned_label": "no (0)"}
{"compound": "OCC1OC(c2cccc3cc(O)c(O)cc23)CC1O (stereo unspecified)", "assigned_label": "yes (1)"}
{"compound": "S=C(Nc1ccccc1)N(/N=C/C=C/c1ccccc1)c1nnc(-c2ccccc2)c(-c2ccccc2)n1", "assigned_label": "yes (1)"}
{"compound": "COc1ccc2c(c1)CCCC(Br)C2=O (stereo unspecified)", "assigned_label": "no (0)"}
{"compound": "FC(F)(F)c1ccc(N=C/C=C(/Nc2ccc(C(F)(F)F)cc2)c2ccc(Cl)cc2)cc1", "assigned_label": "yes (1)"}
{"compound": "N#CC(N)(C(=O)CCC(=O)Nc1cccc(Cl)c1)c1ccc(Cl)cc1 (stereo unspecified)", "assigned_label": "yes (1)"}
{"compound": "COc1ccc(C(C)=O)cc1N1C(=O)C2C(C1=O)C1(c3ccccc3)C(=O)C2(c2ccccc2)C(c2ccc(C)cc2)=C1c1ccc(C)cc1 (stereo unspecified)", "assigned_label": "yes (1)"}
{"compound": "CCOc1ccccc1C=C1c2ccccc2C(=O)c2ccccc21", "assigned_label": "no (0)"}
{"compound": "NC(=Nc1c([N+](=O)[O-])cnc2ccccc12)N1CCOCC1", "assigned_label": "yes (1)"}
{"compound": "C=C(c1nc2ccc(Cl)cc2[nH]c1=O)C(O)c1ccc(C(O)C(=O)c2nc3ccc(Cl)cc3[nH]c2=O)cc1 (stereo unspecified)", "assigned_label": "yes (1)"}
{"compound": "O=C(O)c1ccc(N=C(C(=Nc2ccc(C(=O)O)cc2)c2ccccc2)c2ccccc2)cc1", "assigned_label": "yes (1)"}
{"compound": "CC(C)(C)[Si](C)(C)OCC1OC(n2ccc(N)nc2=O)C(O[Si](C)(C)C(C)(C)C)C1O[Si](C)(C)C(C)(C)C (stereo unspecified)", "assigned_label": "no (0)"}
